Give solubility for every item shown.
- assay details: Solubility in biorelevant media
- test settings: FaSSGF, FaSSIF-V2, FeSSIF-V2 and PBS pH 7.4, 37 °C, pH 7.4, aqueous buffer, thermodynamic from solid

Query: Using the record for [H]/N=C(\N/C(=N/[H])Nc1ccc(Cl)cc1)NC(C)C [Proguanil] , report its solubility.
Response: > 2000 µg/mL

Query: Next record, please: CC1(C)c2nc(-c3ccc(F)cc3)c(Nc3ccc(F)cc3)n2CCN1C(=O)CN [KAF156]
Response: 400 to 500 µg/mL

Query: Next record, please: CC(C)NC(=N)NC(=N)Nc1ccc(Cl)c(Cl)c1 [Chlorproguanil]
Response: > 2000 µg/mL

Query: Next record, please: C[C@H]1c2cccc(O)c2C(=O)C2=C(O)[C@]3(O)C(=O)C(C(N)=O)=C(O)[C@@H](N(C)C)[C@@H]3[C@@H](O)[C@@H]21 [Doxycyclin]
Response: > 2000 µg/mL

###

- assay details: Binding to human liver microsomes via ultracentrifugation
- Type: in vitro ADME
- test settings: human, liver microsomes, pH 7.4, instability evident, estimate only, read-out: Fraction unbound, HLM
reported endpoint: fraction unbound at […]
Quick one: just the number, no unit, thanks!

Query: Using the record for C[C@H]1[C@@H](O)O[C@@H]2O[C@@]3(C)CC[C@H]4[C@H](C)CC[C@@H]1[C@@]24OO3 [Dihydroartemisinin] , report its fraction unbound at […].
Response: 0.87

###

- assay details: Plasma protein binding via rapid equilibrium dialysis (RED), 10% plasma
- Assay type: in vitro ADME, human
- test settings: human, 10% pooled plasma (diluted 1:10), pH 7.4, RED, 10% plasma corrected for dilution, presaturation of device and 24 h dialysis
- Experimental: Pooled human plasma (n = 3–4 donors) was obtained by centrifugation of blood (collected by the Australian Red Cross Blood Service, Melbourne, Australia or the Volunteer Blood Donor Registry, Clinical Translation Centre, Walter & Eliza Hall Institute of Medical Research, Parkville, Australia), or sourcing pooled plasma directly from commercial sources (Innovative Research Inc, MI) and stored frozen at − 80 °C. […]
Give fraction unbound at 24 h for every item shown.
Quick one: just the number, no unit, thanks!

Query: Using the record for Cc1cc(Nc2ccc(S(F)(F)(F)(F)F)cc2)n2nc(C(C)(F)F)nc2n1 [DSM265] , report its fraction unbound at 24 h.
Response: 0.0018

Query: Next record, please: COc1cc(C)c2c(Oc3cccc(C(F)(F)F)c3)c(OC)cc(NC(C)CCCN)c2n1 (stereo not shown) [Tafenoquine]
Response: 0.0007

Query: Next record, please: Clc1ccc2c(N3CCN(CCCN4CCN(c5ccnc6cc(Cl)ccc56)CC4)CC3)ccnc2c1 [Piperaquine]
Response: 0.0003

Query: Next record, please: C[C@H]1Cc2c([nH]c3cc(Cl)c(F)cc23)[C@@]2(N1)C(=O)Nc1ccc(Cl)cc12 [KAE609]
Response: 0.0016

Query: Next record, please: N#Cc1cc(NC(=O)[C@H]2c3ccccc3C(=O)N(CC(F)(F)F)[C@@H]2c2cccnc2)ccc1F [SJ733]
Response: 0.085

Query: Next record, please: CO[C@H]1O[C@@H]2O[C@@]3(C)CC[C@H]4[C@H](C)CC[C@@H]([C@H]1C)[C@@]24OO3 [Artemether]
Response: 0.066

Query: Next record, please: Cc1nc(Nc2ncc(N3CCN(C)[C@H](C)C3)c(Nc3cc(C)n(C)n3)n2)cc(C2CC2)c1F [MMV253]
Response: 0.017

###

- assay details: Octanol/pH 7.4 buffer partition coefficient, shake flask
- test settings: octanol/pH 7.4 buffer, pH 7.4
reported endpoint: logD

Query: Using the record for O=C1C(O)=C([C@H]2CC[C@H](c3ccc(Cl)cc3)CC2)C(=O)c2ccccc21 , report its logD.
Response: 5.3

Query: Next record, please: [H]/N=C(\N/C(=N/[H])Nc1ccc(Cl)cc1)NC(C)C
Response: 0.27

Query: Next record, please: N#Cc1cc(NC(=O)[C@H]2c3ccccc3C(=O)N(CC(F)(F)F)[C@@H]2c2cccnc2)ccc1F
Response: 3.9

Query: Next record, please: CS(=O)(=O)c1ccc(-c2cnc(N)c(-c3ccc(C(F)(F)F)nc3)c2)cc1
Response: 2.5

###

Give pIC50 for every item shown.
- target or system: UniProt:P08684
- Sequence (P08684 whole entry): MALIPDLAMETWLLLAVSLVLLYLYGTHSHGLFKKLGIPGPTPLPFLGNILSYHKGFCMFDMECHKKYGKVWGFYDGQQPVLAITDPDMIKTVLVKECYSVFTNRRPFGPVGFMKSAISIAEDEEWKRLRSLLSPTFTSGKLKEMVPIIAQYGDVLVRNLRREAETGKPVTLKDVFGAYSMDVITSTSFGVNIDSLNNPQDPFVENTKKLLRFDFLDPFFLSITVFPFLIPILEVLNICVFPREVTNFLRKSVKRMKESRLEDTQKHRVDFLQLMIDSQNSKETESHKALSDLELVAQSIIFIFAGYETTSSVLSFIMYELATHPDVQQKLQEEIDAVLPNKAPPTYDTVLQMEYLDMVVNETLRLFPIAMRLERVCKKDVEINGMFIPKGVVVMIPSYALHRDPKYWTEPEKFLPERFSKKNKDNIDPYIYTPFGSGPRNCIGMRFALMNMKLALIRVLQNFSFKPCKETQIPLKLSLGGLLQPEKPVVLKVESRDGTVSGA
- assay details: Cytochrome P450 inhibition in human liver microsomes
- test settings: CYP3A4 (test) IC50, human liver microsomes; CYP3A4 (test); highest concentration tested 20 µM
pIC50: −log10 of the molar value.

Query: What value of pIC50 on UniProt:P08684 does C[C@H]1c2cccc(O)c2C(=O)C2=C(O)[C@]3(O)C(=O)C(C(N)=O)=C(O)[C@@H](N(C)C)[C@@H]3[C@@H](O)[C@@H]21 [Doxycyclin] have?
Response: < 4.70

Query: Next record, please: CO[C@H]1O[C@@H]2O[C@@]3(C)CC[C@H]4[C@H](C)CC[C@@H]([C@H]1C)[C@@]24OO3 [Artemether]
Response: < 4.70

Query: Next record, please: COc1ccc2nc3cc(Cl)ccc3c(Nc3cc(CN4CCCC4)c(O)c(CN4CCCC4)c3)c2n1 [Pyronaridine]
Response: < 4.70

Query: Next record, please: CC(C)(N)CNC(=O)C[C@H]1CC[C@]2(CC1)OO[C@]1(O2)C2CC3CC(C2)CC1C3 [OZ277, Arterolane]
Response: < 4.70

Query: Next record, please: CC(C)NC(=N)NC(=N)Nc1ccc(Cl)c(Cl)c1 [Chlorproguanil]
Response: < 4.70

Query: Next record, please: CCCCN(CCCC)CC(O)c1cc(Cl)cc2c1-c1ccc(Cl)cc1/C2=C/c1ccc(Cl)cc1 (centres unmarked) [Lumefantrine]
Response: < 4.70

Query: Next record, please: CS(=O)(=O)c1ccc(-c2cnc(N)c(-c3ccc(C(F)(F)F)nc3)c2)cc1 [MMV048]
Response: < 4.70

Query: Next record, please: N#Cc1cc(NC(=O)[C@H]2c3ccccc3C(=O)N(CC(F)(F)F)[C@@H]2c2cccnc2)ccc1F [SJ733]
Response: < 4.70

Query: Next record, please: Clc1ccc2c(N3CCN(CCCN4CCN(c5ccnc6cc(Cl)ccc56)CC4)CC3)ccnc2c1 [Piperaquine]
Response: < 4.70

Query: Next record, please: CCN(CC)Cc1cc(Nc2ccnc3cc(Cl)ccc23)ccc1O [Amodiaquine]
Response: < 4.70

Query: Next record, please: CC1(C)N=C(N)N=C(N)N1c1ccc(Cl)cc1 [Cycloguanil]
Response: < 4.70

###

Give logD for every item shown.
- assay details: Octanol/pH 7.4 buffer partition coefficient, shake flask
- test settings: octanol/pH 7.4 buffer, pH 7.4
Quick one: just the number, no unit, thanks!

Query: Using the record for C[C@H]1[C@@H](O)O[C@@H]2O[C@@]3(C)CC[C@H]4[C@H](C)CC[C@@H]1[C@@]24OO3 [Dihydroartemisinin] , report its logD.
Response: 2.3

Query: Next record, please: COc1ccc2nc3cc(Cl)ccc3c(Nc3cc(CN4CCCC4)c(O)c(CN4CCCC4)c3)c2n1
Response: 0.23

Query: Next record, please: CCNCc1cc(Nc2ccnc3cc(Cl)ccc23)ccc1O
Response: 1.3

Query: Next record, please: Cc1nc(Nc2ncc(N3CCN(C)[C@H](C)C3)c(Nc3cc(C)n(C)n3)n2)cc(C2CC2)c1F
Response: 4.42

Query: Next record, please: C[C@H]1[C@H](N2CCS(=O)(=O)CC2)O[C@@H]2O[C@@]3(C)CC[C@H]4[C@H](C)CC[C@@H]1[C@@]24OO3
Response: 2.82

Query: Next record, please: CC(C)(N)CNC(=O)C[C@H]1CC[C@]2(CC1)OO[C@]1(O2)C2CC3CC(C2)CC1C3
Response: 2.6

Query: Next record, please: Cc1cc(Nc2ccc(S(F)(F)(F)(F)F)cc2)n2nc(C(C)(F)F)nc2n1
Response: 4.03

###

Give Measured pKa for every item shown.
- assay details: Ionization constants by potentiometric titration
- Assay type: physicochemical
- test settings: basic pKa (B), mean ± SD, n = 3 titrations

Query: Using the record for CC1(C)CC(O)(COc2ccc(C3CCC4(CC3)OOC3(O4)C4CC5CC(C4)CC3C5)cc2)CC(C)(C)N1 (stereo not drawn) [MMV052] , report its Measured pKa.
Response: 8.3 ± 0.06 (B)

Query: Next record, please: CCc1nc(N)nc(N)c1OCCCOc1ccccc1CCC(=O)O.Cl [P218]
Response: 7.3 ± 0.003

Query: Next record, please: CCN(CC)CCCNc1ccnc2cc(Cl)ccc12.Cl.Cl [AQ-13]
Response: 7.6 ± 0.2 (B)

###

Give fraction unbound at […] for every item shown.
- assay details: Plasma protein binding via ultracentrifugation (UC)
- Format: in vitro ADME, human
- test settings: pH 7.4; human plasma; fraction unbound; read-out: Plasma fu
Quick one: just the number, no unit, thanks!

Query: Using the record for CC(C)(N)CNC(=O)C[C@H]1CC[C@]2(CC1)OO[C@]1(O2)C2CC3CC(C2)CC1C3 , report its fraction unbound at […].
Response: 0.086

Query: Next record, please: C[C@H]1[C@@H](O)O[C@@H]2O[C@@]3(C)CC[C@H]4[C@H](C)CC[C@@H]1[C@@]24OO3 [Dihydroartemisinin]
Response: 0.21

Query: Next record, please: COc1cc(C)c2c(Oc3cccc(C(F)(F)F)c3)c(OC)cc(NC(C)CCCN)c2n1 (stereo not drawn)
Response: 0.0007
